# Test system: HCI01 (cells of a triple-negative basal-like breast cancer xenograft);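 further: PDX cells carrying CMV promoter-driven luciferase, viability read as total photon flux per second by IVIS imaging following D-luciferin, vehicle control 0.1% DMSO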
# Protocol: cell viability (% of vehicle); higher = less cytotoxic
# Experimental Parameters: 10 µM; 72 h
Endpoint Name: cell viability

See these solved cases before continuing.
Compound: CCC(C)C(=O)OC1CC(O)C=C2C=CC(C)C(CCC(O)CC(O)CC(=O)[O-])C21.[Na+] (stereo not drawn) [Pravastatin sodium]
Endpoint Name: cell viability
Value: 142
--
Compound: COC(=O)NC(C(=O)NC(Cc1ccccc1)C(O)CN(Cc1ccc(-c2ccccn2)cc1)NC(=O)C(NC(=O)OC)C(C)(C)C)C(C)(C)C (stereo not drawn) [Atazanavir]
Endpoint Name: cell viability
Value: 88.3
--
Compound: CC(C)CN(CC(O)C(Cc1ccccc1)NC(=O)OC1CCOC1)S(=O)(=O)c1ccc(N)cc1 (stereo not drawn) [Amprenavir (agenerase)]
Endpoint Name: cell viability
Value: 96.3
--
Compound: Cc1nc2n(c(=O)c1CCN1CCC(c3noc4cc(F)ccc34)CC1)CCCC2 [Risperidone]
Endpoint Name: cell viability
Value: 133

Query: Requested read-out: cell viability. Entry: COc1cc(Nc2ncc3c(n2)-c2ccc(Cl)cc2C(c2c(F)cccc2OC)=NC3)ccc1C(=O)O [MLN8237 (Alisertib)]
Result: 80

Query: Please answer likewise for Cc1cc(C#N)cc(C)c1Oc1nc(Nc2ccc(C#N)cc2)nc(N)c1Br [Etravirine (TMC125)]
Result: 107

Query: Now this one: CCC(=O)OC1(C(=O)CCl)C(C)CC2C3CCC4=CC(=O)C=CC4(C)C3(F)C(O)CC21C (stereo not drawn) [Clobetasol propionate]
Result: 116

Query: // query: COc1ccc2cccc(CCNC(C)=O)c2c1 [Agomelatine]
Result: 92.5

Query: One more compound: CC(=O)N1CCN(c2ccc(OCC3COC(Cn4ccnc4)(c4ccc(Cl)cc4Cl)O3)cc2)CC1 (stereo not drawn) [Ketoconazole]
Result: 188

Query: Please give the result for COC(=O)C1C2CC3c4[nH]c5cc(OC)ccc5c4CCN3CC2CC(OC(=O)c2cc(OC)c(OC)c(OC)c2)C1OC (stereo not drawn) [Reserpine] too.
Result: 123
